From: ChEMBL document CHEMBL5291721

Molecular target: Histamine H1 receptor (Homo sapiens); note: assay procedure not described here
Sequence (P35367 whole entry): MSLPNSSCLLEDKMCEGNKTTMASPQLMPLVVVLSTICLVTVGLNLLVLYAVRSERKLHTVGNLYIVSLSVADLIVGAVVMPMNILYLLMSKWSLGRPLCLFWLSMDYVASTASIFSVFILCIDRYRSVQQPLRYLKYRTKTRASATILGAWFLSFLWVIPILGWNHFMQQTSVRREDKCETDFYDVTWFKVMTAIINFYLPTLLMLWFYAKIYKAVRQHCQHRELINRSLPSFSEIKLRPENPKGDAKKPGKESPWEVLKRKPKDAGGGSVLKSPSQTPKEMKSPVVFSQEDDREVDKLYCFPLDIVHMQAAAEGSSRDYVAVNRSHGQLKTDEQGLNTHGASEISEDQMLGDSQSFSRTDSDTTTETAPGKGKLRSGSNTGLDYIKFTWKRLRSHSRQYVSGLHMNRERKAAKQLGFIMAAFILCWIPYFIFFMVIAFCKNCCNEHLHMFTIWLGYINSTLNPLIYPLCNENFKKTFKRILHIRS
Where a SMILES comes first, the peptide text is derived from it. [ ]: non-standard residue; d: D form. pGlu = O=C1CC[C@@H](C(=O)O)N1; Thz = O=C(O)[C@@H]1CSCN1
# AC50 listing for each entry below

>>> print(df.to_string())
                                   compound  valuekind   result
0  CO/N=C(\C(=O)N[C@@H]1C(=O)N2C(C(=O)O)=CCS[C@H]12)c1csc(N)n1       AC50  > 30 µM
1  O=C1CC[C@@H](C(=O)N2CSC[C@H]2C(=O)O)N1 [PIDOTIMOD] ([pGlu]-[Thz]-OH)       AC50  > 30 µM

Incoming: Quick check: AC50 on Histamine H1 receptor (Homo sapiens), item CC=CC1=C(C(=O)O)N2C(=O)[C@@H](NC(=O)[C@H](N)c3ccc(O)cc3)[C@H]2SC1 ?
Outgoing: > 30 µM

Incoming: Quick check: AC50 on Histamine H1 receptor (Homo sapiens), item CCC(NC(C)C)C(O)c1ccc(O)c2[nH]c(=O)ccc12 (centres undefined) ?
Outgoing: > 30 µM

Incoming: Quick check: AC50 on Histamine H1 receptor (Homo sapiens), item CC(C)(O/N=C(\C(=O)N[C@@H]1C(=O)N2C(C(=O)[O-])=C(C[n+]3ccccc3)CS[C@H]12)c1csc(N)n1)C(=O)O ?
Outgoing: > 300 µM

Incoming: Quick check: AC50 on Histamine H1 receptor (Homo sapiens), item Cn1cc(C(=O)[C@@H]2CCc3nc[nH]c3C2)c2ccccc21 ?
Outgoing: > 30 µM

Incoming: Quick check: AC50 on Histamine H1 receptor (Homo sapiens), item C[N+]1(C)CCC(=C(c2ccccc2)c2ccccc2)CC1 ?
Outgoing: 2.9 µM

Incoming: Quick check: AC50 on Histamine H1 receptor (Homo sapiens), item Cc1nc(Nc2ncc(C(=O)Nc3c(C)cccc3Cl)s2)cc(N2CCN(CCO)CC2)n1 ?
Outgoing: > 30 µM

Incoming: Quick check: AC50 on Histamine H1 receptor (Homo sapiens), item CCC(=O)O[C@](Cc1ccccc1)(c1ccccc1)[C@H](C)CN(C)C ?
Outgoing: > 10 µM

###

Target: Muscarinic acetylcholine receptor M2 (Homo sapiens); note: assay procedure not described here
Sequence (P08172 whole entry): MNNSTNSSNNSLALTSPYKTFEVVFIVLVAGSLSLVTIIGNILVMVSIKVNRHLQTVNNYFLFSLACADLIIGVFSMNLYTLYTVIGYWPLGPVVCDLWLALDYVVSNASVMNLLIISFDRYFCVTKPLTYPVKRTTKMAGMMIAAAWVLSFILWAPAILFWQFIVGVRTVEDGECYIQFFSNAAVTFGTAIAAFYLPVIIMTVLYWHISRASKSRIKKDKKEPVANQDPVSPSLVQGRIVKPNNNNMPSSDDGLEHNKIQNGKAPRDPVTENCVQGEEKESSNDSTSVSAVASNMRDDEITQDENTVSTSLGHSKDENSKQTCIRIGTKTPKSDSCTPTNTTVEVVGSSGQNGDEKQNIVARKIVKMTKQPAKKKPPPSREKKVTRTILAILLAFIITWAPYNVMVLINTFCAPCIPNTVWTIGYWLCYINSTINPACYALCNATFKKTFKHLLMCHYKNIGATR
Assay type: functional, cell-based
# AC50 listing for each entry below

Incoming: Quick check: AC50 on Muscarinic acetylcholine receptor M2 (Homo sapiens), item CCOC(=O)c1c(CSc2ccccc2)n(C)c2cc(Br)c(O)c(CN(C)C)c12 [UMIFENOVIR] ?
Outgoing: 28 µM

Incoming: Quick check: AC50 on Muscarinic acetylcholine receptor M2 (Homo sapiens), item COc1ccc(C2C(=O)c3ccccc3C2=O)cc1 [ANISINDIONE] ?
Outgoing: > 10 µM

Incoming: Quick check: AC50 on Muscarinic acetylcholine receptor M2 (Homo sapiens), item CC(C)[C@@H](C)/C=C/[C@@H](C)[C@H]1CC[C@H]2/C(=C/C=C3\C[C@@H](O)CC[C@@H]3C)CCC[C@]12C [DIHYDROTACHYSTEROL] ?
Outgoing: > 10 µM

Incoming: Quick check: AC50 on Muscarinic acetylcholine receptor M2 (Homo sapiens), item COc1cc(C(=O)OCc2cccc(COC(=O)c3cc(OC)c(OC)c(OC)c3)n2)cc(OC)c1OC [PIROZADIL] ?
Outgoing: > 30 µM

Incoming: Quick check: AC50 on Muscarinic acetylcholine receptor M2 (Homo sapiens), item NC[C@H]1CC[C@H](C(=O)Oc2ccc(CCC(=O)O)cc2)CC1 [CETRAXATE] ?
Outgoing: > 30 µM

###

# AC50 listing for each entry below
Target: UniProtKB P21728
Sequence (P21728 whole entry): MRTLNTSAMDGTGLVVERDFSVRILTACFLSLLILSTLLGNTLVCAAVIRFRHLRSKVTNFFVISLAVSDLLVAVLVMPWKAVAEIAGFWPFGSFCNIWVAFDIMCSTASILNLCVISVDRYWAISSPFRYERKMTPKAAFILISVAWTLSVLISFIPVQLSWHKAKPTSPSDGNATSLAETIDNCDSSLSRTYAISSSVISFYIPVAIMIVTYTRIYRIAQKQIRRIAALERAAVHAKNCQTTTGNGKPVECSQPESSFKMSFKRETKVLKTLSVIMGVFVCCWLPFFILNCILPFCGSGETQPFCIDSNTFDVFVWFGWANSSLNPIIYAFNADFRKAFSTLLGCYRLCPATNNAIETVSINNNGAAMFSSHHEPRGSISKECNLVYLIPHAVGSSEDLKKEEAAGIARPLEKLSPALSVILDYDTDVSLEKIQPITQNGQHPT

In [3]: df
Out[3]:
                                   compound   result
0  C=C1CC[C@H](O)C/C1=C/C=C1\CCC[C@]2(C)[C@@H]([C@H](C)CCCC(C)C)CC[C@@H]12  > 30 µM

Incoming: Quick check: AC50 on UniProtKB P21728, item O=C(O)P(=O)(O)O ?
Outgoing: > 30 µM

Incoming: Quick check: AC50 on UniProtKB P21728, item C#C[C@]1(O)C=C[C@H]2[C@@H]3CCC4=CC(=O)CC[C@@H]4[C@H]3CC[C@@]21CC ?
Outgoing: > 30 µM

Incoming: Quick check: AC50 on UniProtKB P21728, item C[N+](C)(C)CCOP(=O)(O)OP(=O)([O-])OC[C@H]1O[C@@H](n2ccc(N)nc2=O)[C@H](O)[C@@H]1O ?
Outgoing: > 30 µM

Incoming: Quick check: AC50 on UniProtKB P21728, item CC(C)C[C@H](NC(=O)[C@@H](O)[C@H](N)Cc1ccccc1)C(=O)O ?
Outgoing: > 30 µM

Incoming: Quick check: AC50 on UniProtKB P21728, item CCCCC(CC)CN1CN(CC(CC)CCCC)CC(C)(N)C1 (centres undefined) ?
Outgoing: > 30 µM

Incoming: Quick check: AC50 on UniProtKB P21728, item O=C(NNCS(=O)(=O)O)c1ccncc1 [METHANIAZIDE] ?
Outgoing: > 30 µM

###

# AC50 listing for each entry below
Molecular target: Gamma-aminobutyric acid receptor subunit alpha-1 (Rattus norvegicus, UniProt P62813); note: assay procedure not described here
Sequence (P62813 whole entry): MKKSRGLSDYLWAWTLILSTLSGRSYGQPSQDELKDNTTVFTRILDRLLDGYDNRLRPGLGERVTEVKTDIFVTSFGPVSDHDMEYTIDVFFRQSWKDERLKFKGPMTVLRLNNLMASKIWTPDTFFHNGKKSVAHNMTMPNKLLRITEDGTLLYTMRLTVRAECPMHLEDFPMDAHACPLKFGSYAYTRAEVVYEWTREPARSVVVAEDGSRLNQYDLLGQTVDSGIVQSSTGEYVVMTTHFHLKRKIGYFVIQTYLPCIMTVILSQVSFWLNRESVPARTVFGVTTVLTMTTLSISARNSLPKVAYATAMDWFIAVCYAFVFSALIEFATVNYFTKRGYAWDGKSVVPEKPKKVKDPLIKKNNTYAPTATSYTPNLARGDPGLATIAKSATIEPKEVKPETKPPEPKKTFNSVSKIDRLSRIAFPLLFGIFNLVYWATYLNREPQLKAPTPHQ
Format: functional

Incoming: What measured AC50 goes with Fc1ccc([C@@H]2CCNC[C@H]2COc2ccc3c(c2)OCO3)cc1 [PAROXETINE] ?
Outgoing: > 10 µM

Incoming: What measured AC50 goes with O=S1(=O)CCN(CN2CCS(=O)(=O)NC2)CN1 [TAUROLIDINE] ?
Outgoing: > 10 µM

Incoming: What measured AC50 goes with O=C(c1cc(Cc2n[nH]c(=O)c3ccccc23)ccc1F)N1CCN(C(=O)C2CC2)CC1 [OLAPARIB] ?
Outgoing: > 10 µM

Incoming: What measured AC50 goes with CCN1CC(CCN2CCOCC2)C(c2ccccc2)(c2ccccc2)C1=O (stereo not given) [DOXAPRAM] ?
Outgoing: > 30 µM

Incoming: What measured AC50 goes with C[C@]12CCC(=O)C[C@@H]1CC[C@@H]1[C@@H]2CC[C@]2(C)[C@@H](O)CC[C@@H]12 [STANOLONE] ?
Outgoing: > 30 µM

###

# AC50 listing for each entry below
Molecular target: 3',5'-cyclic-AMP phosphodiesterase 4A (Homo sapiens); note: assay procedure not described here
Sequence (P27815 whole entry): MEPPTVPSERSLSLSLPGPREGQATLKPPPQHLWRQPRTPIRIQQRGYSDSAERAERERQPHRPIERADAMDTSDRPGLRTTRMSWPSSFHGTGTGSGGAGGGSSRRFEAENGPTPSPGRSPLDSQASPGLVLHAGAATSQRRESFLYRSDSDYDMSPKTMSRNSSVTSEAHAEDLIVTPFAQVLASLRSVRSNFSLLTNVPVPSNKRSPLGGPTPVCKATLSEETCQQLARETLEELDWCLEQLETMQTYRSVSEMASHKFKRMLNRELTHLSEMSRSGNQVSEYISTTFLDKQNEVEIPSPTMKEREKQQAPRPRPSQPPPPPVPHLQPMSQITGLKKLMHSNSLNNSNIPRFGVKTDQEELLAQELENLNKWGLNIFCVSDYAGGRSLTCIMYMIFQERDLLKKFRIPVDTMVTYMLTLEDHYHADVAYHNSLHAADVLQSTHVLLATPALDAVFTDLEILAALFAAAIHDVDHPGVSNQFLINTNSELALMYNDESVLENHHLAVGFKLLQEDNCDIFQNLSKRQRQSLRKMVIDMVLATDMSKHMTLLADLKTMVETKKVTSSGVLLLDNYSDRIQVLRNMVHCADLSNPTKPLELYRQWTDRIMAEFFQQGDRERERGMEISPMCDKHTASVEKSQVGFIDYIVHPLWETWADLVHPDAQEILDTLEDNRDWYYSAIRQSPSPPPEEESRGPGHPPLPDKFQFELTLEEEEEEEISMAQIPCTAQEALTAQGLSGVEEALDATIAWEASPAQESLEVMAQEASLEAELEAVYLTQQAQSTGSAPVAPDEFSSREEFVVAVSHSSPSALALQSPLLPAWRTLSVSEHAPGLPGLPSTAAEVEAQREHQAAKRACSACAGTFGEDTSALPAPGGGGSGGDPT
Type: functional

molecule	AC50
COc1c2occc2c(OC)c2c(=O)cc(C)oc12	2.85 µM

Incoming: Quick check: AC50 on 3',5'-cyclic-AMP phosphodiesterase 4A (Homo sapiens), item C[C@@H]1C[C@H]2[C@@H]3C[C@H](F)C4=CC(=O)C=C[C@]4(C)[C@H]3[C@@H](O)C[C@]2(C)[C@@]1(O)C(=O)CO ?
Outgoing: > 30 µM

Incoming: Quick check: AC50 on 3',5'-cyclic-AMP phosphodiesterase 4A (Homo sapiens), item C[C@H]1O[C@@H](O[C@H]2CC[C@@]3(C)[C@H](CC[C@@H]4[C@@H]3C[C@@H](O)[C@]3(C)[C@@H](C5=CC(=O)OC5)CC[C@]43O)C2)C[C@H](O)[C@@H]1O[C@H]1C[C@H](O)[C@H](O[C@H]2C[C@H](O)[C@H](O[C@@H]3O[C@H](CO)[C@@H](O)[C@H](O)[C@H]3O)[C@@H](C)O2)[C@@H](C)O1 [DESLANOSIDE] ?
Outgoing: > 30 µM

Incoming: Quick check: AC50 on 3',5'-cyclic-AMP phosphodiesterase 4A (Homo sapiens), item O=C(/C=C/c1cccc(S(=O)(=O)Nc2ccccc2)c1)NO ?
Outgoing: 23.7 µM

###

Protein target, amino acids: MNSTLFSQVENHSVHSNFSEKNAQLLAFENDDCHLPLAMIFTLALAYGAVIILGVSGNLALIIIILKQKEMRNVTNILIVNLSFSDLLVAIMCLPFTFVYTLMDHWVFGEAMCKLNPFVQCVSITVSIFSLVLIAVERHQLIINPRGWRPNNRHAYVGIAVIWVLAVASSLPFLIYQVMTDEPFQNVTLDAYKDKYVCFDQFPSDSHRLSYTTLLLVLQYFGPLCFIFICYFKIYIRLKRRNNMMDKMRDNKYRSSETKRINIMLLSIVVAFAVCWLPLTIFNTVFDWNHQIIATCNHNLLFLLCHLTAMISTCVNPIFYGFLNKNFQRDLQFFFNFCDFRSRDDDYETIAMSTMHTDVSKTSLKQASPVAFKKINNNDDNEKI
Where a SMILES comes first, the peptide text is derived from it. [ ]: non-standard residue; d: D form. pGlu = O=C1CC[C@@H](C(=O)O)N1; Thz = O=C(O)[C@@H]1CSCN1
valueKind: AC50

Below: 4 compounds and their reported AC50.
>>> df
                                   compound   result
0  COc1cc(C(=O)NS(=O)(=O)c2ccccc2C)ccc1Cc1cn(C)c2ccc(NC(=O)OC3CCCC3)cc12  > 10 µM
1  CC(c1cc2ccccc2s1)N(O)C(N)=O (centres undefined)  > 10 µM
2  CC=CC1=C(C(=O)O)N2C(=O)[C@@H](NC(=O)[C@H](N)c3ccc(O)cc3)[C@H]2SC1  > 30 µM
3  O=C1CC[C@@H](C(=O)N2CSC[C@H]2C(=O)O)N1 [PIDOTIMOD] ([pGlu]-[Thz]-OH)  > 30 µM

Incoming: What measured AC50 goes with CC(C(=O)O)c1ccc2c(c1)CC(=O)c1ccccc1S2 (centres undefined) ?
Outgoing: > 30 µM

Incoming: What measured AC50 goes with CCOC(=O)c1ccc(N)cc1 ?
Outgoing: > 10 µM

Incoming: What measured AC50 goes with Fc1ccc([C@@H]2CCNC[C@H]2COc2ccc3c(c2)OCO3)cc1 ?
Outgoing: > 30 µM

Incoming: What measured AC50 goes with CC(=O)[C@H]1CC[C@H]2[C@@H]3C[C@H](C)C4=CC(=O)CC[C@]4(C)[C@H]3[C@@H](O)C[C@]12C ?
Outgoing: > 10 µM

Incoming: What measured AC50 goes with O=C1c2cccc3c2[C@H](CCC3)CN1[C@@H]1CN2CCC1CC2 ?
Outgoing: > 30 µM
